target: GLP-1R (Homo sapiens); construct: host or cells: GLP-1R CRE-bla CHO-K1 cells; test: EC20 GLP-1(9-36) PAM cAMP assay: dose response of compound in the presence of fixed concentration of GLP-1(9-36); type: cell-based; details: dose response of compound in presence of fixed concentration of GLP-1(9-36), GLP-1R CRE-bla CHO-K1 cells, read-out: EC20 GLP-1(9-36) PAM EC50
Sequence (P43220 24-463): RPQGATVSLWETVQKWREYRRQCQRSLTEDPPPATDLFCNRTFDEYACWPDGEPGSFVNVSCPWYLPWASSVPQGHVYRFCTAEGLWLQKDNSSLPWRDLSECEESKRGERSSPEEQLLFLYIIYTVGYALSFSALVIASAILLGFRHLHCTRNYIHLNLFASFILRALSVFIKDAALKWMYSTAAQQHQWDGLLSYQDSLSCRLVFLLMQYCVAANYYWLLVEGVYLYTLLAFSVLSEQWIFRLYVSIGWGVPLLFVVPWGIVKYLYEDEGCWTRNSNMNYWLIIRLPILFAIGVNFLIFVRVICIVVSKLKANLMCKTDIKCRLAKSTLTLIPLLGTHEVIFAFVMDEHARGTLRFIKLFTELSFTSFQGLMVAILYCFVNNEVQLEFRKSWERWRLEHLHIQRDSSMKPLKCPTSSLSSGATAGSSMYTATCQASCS
Sequence (P01275 100-127 partner limits assumed): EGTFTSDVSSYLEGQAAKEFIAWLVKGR
pEC50: −log10 of the molar value.
# Lookup of reported pEC50 keyed by entry

Known results for compounds:
COMPOUND	TESTED ON	pEC50
CC(C)(C)c1ccc(C(=O)N[C@@H](Cc2ccc(-c3ncc(-c4ccc(C#Cc5ccccc5)cc4)cn3)cc2)C(=O)NCCC(=O)O)cc1 [Compound 689]	GLP-1R (Homo sapiens)	5.30 to 5.60
CCCCCCCOc1ccc(-c2cnc(-c3ccc(C[C@H](NC(=O)c4ccc(C(C)(C)C)cc4)C(=O)N4CC[C@H](C(=O)O)C4)cc3)nc2)cc1 [Compound 632]	GLP-1R (Homo sapiens)	5.60 to 6.10

Please find the next compound below.
I'd like to know its pEC50. The compound in question is CC(C)Oc1ccc(-c2cnc(-c3ccc(C[C@H](NC(=O)c4ccc(C(C)(C)C)s4)C(=O)NC(C(=O)O)C(O)c4ccccc4)cc3)nc2)cc1 (stereo partly drawn) [Compound 931]
5.30 to 5.60

Values from patent US10034886B2
